# TARGET DESC: T1, c-erbB-2 ECD with a Ser-Gly-His6 C-terminal fusion (UniProt P04626 23-652)
# T1 construct: extracellular domain; Expressed from CHO cells, IMAC purified; coupled to a CM5 chip, coated on plates, or biotinylated with NHS-LC-biotin; also called c-erbB-2 extracellular domain; biotinylated c-erbB-2 ECD
# MEASUREMENT DESCRIPTION: SPR BIAcore
Listing: Kd (C6.5)/Kd (mut) of selected binders

{"BINDER": "C6-9L1 (scFv, C6L1 with the VL CDR3 of C6ML3-9) scFv: QVQLLQSGAELKKPGESLKISCKGSGYSFTSYWIAWVRQMPGKGLEYMGLIYPGDSDTKYSPSFQGQVTISVDKSVSTAYLQWSSLKPSDSAVYFCARHDVGYCSSSNCAKWPEYFQHWGQGTLVTVSSGGGGSGGGGSGGGGSQSVLTQPPSVSGAPGQWVTISCSGSSSNIGNNYVSWYQQLPGTAPKLLIYDNNKRPSGVPDRFSGSQSGTSASLAISGLRSEDEADYYCASWDYTLSGWVFGGGTKLTVLG", "Kd (C6.5)/Kd (mut)": 49}
{"BINDER": "C6-B47D3 (scFv, Combined B47 and D3 mutations on C6ML3-9) scFv: QVQLLQSGAELKKPGESLKISCKGSGYSFTSYWIAWVRQMPGKGLEYMGLIYPGDSDTKYSPSFQGQVTISVDKSVSTAYLQWSSLKPSDSAVYFCARHDVGYCTDRSCAKWPEWLDNWGQGTLVTVSSGGGGSGGGGSGGGGSQSVLTQPPSVSAAPGQKVTISCSGSSSNIGNNYVSWYQQLPGTAPKLLIYGHTNRPAGVPDRFSGSKSGTSASLAISGFRSEDEADYYCASWDYTLSGWVFGGGTKLTVLG", "Kd (C6.5)/Kd (mut)": 333}
{"BINDER": "C6-B1D2 (scFv, Combined B1 and D2 mutations on C6ML3-9) scFv: QVQLLQSGAELKKPGESLKISCKGSGYSFTSYWIAWVRQMPGKGLEYMGLIYPGDSDTKYSPSFQGQVTISVDKSVSTAYLQWSSLKPSDSAVYFCARHDVGYCTDRTCAKWPEWLGVWGQGTLVTVSSGGGGSGGGGSGGGGSQSVLTQPPSVSAAPGQKVTISCSGSSSNIGNNYVSWYQQLPGTAPKLLIYGHTNRPAGVPDRFSGSKSGTSASLAISGFRSEDEADYYCASWDYTLSGWVFGGGTKLTVLG", "Kd (C6.5)/Kd (mut)": 1070}
{"BINDER": "C6-B47D6 (scFv, Combined B47 and D6 mutations on C6ML3-9) scFv: QVQLLQSGAELKKPGESLKISCKGSGYSFTSYWIAWVRQMPGKGLEYMGLIYPGDSDTKYSPSFQGQVTISVDKSVSTAYLQWSSLKPSDSAVYFCARHDVGYCTDRSCAKWPEWMYPWGQGTLVTVSSGGGGSGGGGSGGGGSQSVLTQPPSVSAAPGQKVTISCSGSSSNIGNNYVSWYQQLPGTAPKLLIYGHTNRPAGVPDRFSGSKSGTSASLAISGFRSEDEADYYCASWDYTLSGWVFGGGTKLTVLG", "Kd (C6.5)/Kd (mut)": 314}
{"BINDER": "C6-B47D2 (scFv, Combined B47 and D2 mutations on C6ML3-9) scFv: QVQLLQSGAELKKPGESLKISCKGSGYSFTSYWIAWVRQMPGKGLEYMGLIYPGDSDTKYSPSFQGQVTISVDKSVSTAYLQWSSLKPSDSAVYFCARHDVGYCTDRSCAKWPEWLGVWGQGTLVTVSSGGGGSGGGGSGGGGSQSVLTQPPSVSAAPGQKVTISCSGSSSNIGNNYVSWYQQLPGTAPKLLIYGHTNRPAGVPDRFSGSKSGTSASLAISGFRSEDEADYYCASWDYTLSGWVFGGGTKLTVLG", "Kd (C6.5)/Kd (mut)": 364}
